Data credit: patent US4199504A

experiment: Titration pKa' in 66 percent DMF; format: physicochemical
Quantity measured: pKa'
In your answer, state the number alone without any accompanying words.

Recorded result, CCC1(O)CC2CN(CCc3c([nH]c4ccccc34)C(C(=O)OC)(c3cc4c(cc3OC)N(C)C3C(O)(C(=O)NCCN(CCNC(=O)C5(O)C(O)C6(CC)C=CCN7CCC8(c9cc(C%10(C(=O)OC)CC%11CN(CCc%12c%10[nH]c%10ccccc%12%10)CC(O)(CC)C%11)c(OC)cc9N(C)C58)C76)CCNC(=O)C5(O)C(O)C6(CC)C=CCN7CCC8(c9cc(C%10(C(=O)OC)CC%11CN(CCc%12c%10[nH]c%10ccccc%12%10)CC(O)(CC)C%11)c(OC)cc9N(C)C58)C76)C(O)C5(CC)C=CCN6CCC43C65)C2)C1 (stereo not drawn) , pKa': 7.25

pKa' reported for this compound CCC1(O)CC2CN(CCc3c([nH]c4ccccc34)C(C(=O)OC)(c3cc4c(cc3OC)N(C)C3C(O)(C(=O)NCCOCCNC(=O)C5(O)C(O)C6(CC)C=CCN7CCC8(c9cc(C%10(C(=O)OC)CC%11CN(CCc%12c%10[nH]c%10ccccc%12%10)CC(O)(CC)C%11)c(OC)cc9N(C)C58)C76)C(O)C5(CC)C=CCN6CCC43C65)C2)C1 (stereo not drawn) : 7.21

Entry under test: CCC1(O)CC2CN(CCc3c([nH]c4ccccc34)C(C(=O)OC)(c3cc4c(cc3OC)N(C)C3C(O)(C(=O)NCCCCNC(=O)C5(O)C(O)C6(CC)C=CCN7CCC8(c9cc(C%10(C(=O)OC)CC%11CN(CCc%12c%10[nH]c%10ccccc%12%10)CC(O)(CC)C%11)c(OC)cc9N(C)C58)C76)C(O)C5(CC)C=CCN6CCC43C65)C2)C1 (stereo not drawn) . Its pKa' was 7.5

* * *

Task for the reader: assign each of the following compounds its reported pKa' (first value).
assay: Titration pKa' in 66 percent DMF; format: physicochemical

The value of pKa' (first value) measured for the compound CCC1(O)CC2CN(CCc3c([nH]c4ccccc34)C(C(=O)OC)(c3cc4c(cc3OC)N(C)C3C(O)(C(=O)NCCN(CCNC(=O)C5(O)C(O)C6(CC)C=CCN7CCC8(c9cc(C%10(C(=O)OC)CC%11CN(CCc%12c%10[nH]c%10ccccc%12%10)CC(O)(CC)C%11)c(OC)cc9N(C)C58)C76)CCNC(=O)C5(O)C(O)C6(CC)C=CCN7CCC8(c9cc(C%10(C(=O)OC)CC%11CN(CCc%12c%10[nH]c%10ccccc%12%10)CC(O)(CC)C%11)c(OC)cc9N(C)C58)C76)C(O)C5(CC)C=CCN6CCC43C65)C2)C1 (stereo not drawn) turned out to be 5.2

Entry CCC1(O)CC2CN(CCc3c([nH]c4ccccc34)C(C(=O)OC)(c3cc4c(cc3OC)N(C)C3C(O)(C(=O)NCCCSSCCCNC(=O)C5(O)C(O)C6(CC)C=CCN7CCC8(c9cc(C%10(C(=O)OC)CC%11CN(CCc%12c%10[nH]c%10ccccc%12%10)CC(O)(CC)C%11)c(OC)cc9N(C)C58)C76)C(O)C5(CC)C=CCN6CCC43C65)C2)C1 (stereo not drawn) , pKa' (first value) reported as 5.20

The value of pKa' (first value) measured for the compound CCC12CN3CCc4c([nH]c5ccccc45)C(C(=O)OC)(c4cc5c(cc4OC)N(C)C4C(O)(C(=O)NCCSSCCNC(=O)C6(O)C(O)C7(CC)C=CCN8CCC9(c%10cc(C%11(C(=O)OC)CC%12CN(CCc%13c%11[nH]c%11ccccc%13%11)CC%11(CC)OC%12%11)c(OC)cc%10N(C)C69)C87)C(O)C6(CC)C=CCN7CCC54C76)CC(C3)C1O2 (stereo not drawn) turned out to be 5.3
